- experimental target: T1, recombinant human CD123-Fc (human, UniProt P26951 19-305)
- T1 construct: not shown: Fc part of CD123-Fc
- T1 sequence: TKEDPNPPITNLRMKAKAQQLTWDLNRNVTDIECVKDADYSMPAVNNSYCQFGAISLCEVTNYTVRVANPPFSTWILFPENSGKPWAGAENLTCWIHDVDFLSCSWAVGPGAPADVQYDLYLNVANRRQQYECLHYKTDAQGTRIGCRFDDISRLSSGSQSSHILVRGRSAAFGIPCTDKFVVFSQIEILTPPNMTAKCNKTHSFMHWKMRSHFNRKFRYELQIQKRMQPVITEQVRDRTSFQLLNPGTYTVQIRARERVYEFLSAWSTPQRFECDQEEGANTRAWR
- method: phage ELISA, captured CD123-Fc
Assign labels as follows, please: true (1) for ELISA_avg below 4 ratio A450 target/IgG1-Fc; false (0) for ELISA_avg equal to or exceeding 4 ratio A450 target/IgG1-Fc.

Worked set:
[
  {
    "binder": "SEQ ID NO: 567 (designed binder, D domain, on phage) MGSWYEFWDRLTAIEHRLWALGGSEAELAYFEDSIAHFEGSLQVYKGKGNPEVEALYKEAEAIEWELEAYRHN",
    "answer label": "false (0)"
  },
  {
    "binder": "SEQ ID NO: 431 (designed binder, D domain, on phage) MGSWSEFYLRLDAIYDRLDALGGSEAELAAFEKEIAAFESELQAYKGKGNPEVEWLRKTAANIREELQAYRHN",
    "answer label": "false (0)"
  },
  {
    "binder": "SEQ ID NO: 581 (designed binder, D domain, on phage) MGSWYEFSSRLNAIDDRLWALGGSEAELAYFETDIADFESLLQWYKGKGNPEVEALLNEADAIDYELYAYRHN",
    "answer label": "true (1)"
  },
  {
    "binder": "SEQ ID NO: 488 (designed binder, D domain, on phage) MGSWAWFKEDLAEIKVFLEALGGSEAELAEFEVSIADFEYELQDYKGKGNPEVEALRKEAAAIRDELQAYRHN",
    "answer label": "true (1)"
  }
]

Prompt: Lab note: confirm whether the reported ELISA_avg for this binder is below 4 ratio A450 target/IgG1-Fc, equality not counting. binder: SEQ ID NO: 390 (designed binder, D domain, on phage) MGSWSEFYDRLWAIEERLFALGGSEAELAAFEKEIAAFESELQAYKGKGNPEVEYLRYYAAEIREELQAYRHN
Response: false (0)

// provenance: patent US20230125550A1
